Reference source: ChEMBL document CHEMBL1142414

MEASURED TARGET: UniProt:P25779
Sequence (P25779 whole entry): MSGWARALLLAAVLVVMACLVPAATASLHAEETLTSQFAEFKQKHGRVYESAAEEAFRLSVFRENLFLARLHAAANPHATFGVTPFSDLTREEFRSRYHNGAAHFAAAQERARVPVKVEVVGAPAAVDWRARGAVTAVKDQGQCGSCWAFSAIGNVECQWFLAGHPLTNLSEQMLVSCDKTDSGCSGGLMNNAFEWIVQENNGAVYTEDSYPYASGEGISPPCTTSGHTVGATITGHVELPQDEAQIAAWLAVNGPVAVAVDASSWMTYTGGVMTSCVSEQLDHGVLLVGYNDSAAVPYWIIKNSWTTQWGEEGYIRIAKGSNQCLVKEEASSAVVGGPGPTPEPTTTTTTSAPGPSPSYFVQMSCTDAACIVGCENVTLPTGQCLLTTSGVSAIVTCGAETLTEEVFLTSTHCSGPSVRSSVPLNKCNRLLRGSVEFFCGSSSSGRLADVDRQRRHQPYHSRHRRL
TEST: Inhibition of cruzain
Measured IC50 of individual entries

> print(dat)
                                   molecule     value
1  CCOC(=O)C1=C(c2ccccc2)NC(SCC(=O)Nc2ccc(C)cc2)=C(C#N)C1c1ccco1 (centres undefined)    < 1 µM
2  CC(C)[C@H](NC(=O)OC(C)(C)C)c1nnc(S(=O)(=O)Cc2c(F)cccc2Cl)o1 (stereo in doubt; 1)    < 1 µM
3     CCOC(=O)/C(C(C)=O)=C1\OC(=O)c2ccccc21  < 600 µM

Then this molecule:
So for CCCC12CN(C(=O)c3ccc(OC)cc3)CC(C)(CN(C(=O)c3ccc(OC)cc3)C1)C2=O , the logged IC50 turned out to be > 600 µM

---

Measured pIC50 of individual entries
TEST: Inhibition of beta-lactamase AmpC
pIC50: −log10 of the molar value.

> print(dat)
                                   molecule   value
1  CC(C)(C)OC(=O)NCCc1nnc(S(=O)(=O)Cc2ccc(Cl)cc2Cl)o1  > 6.00

So for CC1=C/C(=C\c2ccc3c(c2)OCO3)C(=O)S1 , the logged pIC50 turned out to be < 3.22

So for CC(C)[C@H](NC(=O)OC(C)(C)C)c1nnc(S(=O)(=O)Cc2c(F)cccc2Cl)o1 (stereo in doubt; 1) , the logged pIC50 turned out to be > 6.00

---

TEST: Inhibition of beta-lactamase AmpC
pIC50: −log10 of the molar value.
Measured pIC50 of individual entries

> print(dat)
                                   molecule   value
1             c1cc2c3c(c1)c1c(n3CCNC2)CCCC1  < 3.22
2  O=C(CC1(O)C(=O)Nc2cc(Cl)cc(Cl)c21)c1ccccc1O (stereo not given)  < 3.22
3  CC(C)(C)OC(=O)NCc1nnc(S(=O)(=O)Cc2ccc(Cl)cc2Cl)o1  > 6.00

So for COc1cccc(-c2ccc3ncnc(NCc4ccc(OC)cc4OC)c3c2)c1 , the logged pIC50 turned out to be < 3.22

So for COc1cccc(-c2nccc(-n3ccnc3)n2)c1 , the logged pIC50 turned out to be < 3.22

---

TEST: Inhibition of beta-lactamase AmpC
OBSERVATION TYPE: Ki (mM)

> print(dat)
                                   compound  observation.type  value
1  CSCCC(C(=O)O)N1C(=O)c2ccc(C(=O)O)cc2C1=O (racemic)                Ki    1.3

A = CC(C)CC(C(=O)O)N1C(=O)c2ccc(C(=O)O)cc2C1=O (racemic)
B = O=C(O)CN1C(=O)c2ccc(C(=O)O)cc2C1=O
Lab note: check whether A or B shows the higher recorded Ki. Select an item and report its label.
B
